- System under test: Cyclin-dependent kinase 2/cyclin E1 (Homo sapiens)
- Measurement notes: Inhibition of CDK2/cyclin E1 (unknown origin)
Measured attribute: pIC50
The read-out pIC50 is expressed as -log10 of concentration in moles per litre.

get_value(item= CCN1CCN(c2ccc(Nc3ncc4nc(C(C)=O)c(=O)n(C5CCCC5)c4n3)cc2)CC1 , readout=pIC50) returns 5.10

###

# pIC50 annotations
- System under test: CDK7/Cyclin H/MNAT1 (Homo sapiens)
- Sequence (P51946 whole entry): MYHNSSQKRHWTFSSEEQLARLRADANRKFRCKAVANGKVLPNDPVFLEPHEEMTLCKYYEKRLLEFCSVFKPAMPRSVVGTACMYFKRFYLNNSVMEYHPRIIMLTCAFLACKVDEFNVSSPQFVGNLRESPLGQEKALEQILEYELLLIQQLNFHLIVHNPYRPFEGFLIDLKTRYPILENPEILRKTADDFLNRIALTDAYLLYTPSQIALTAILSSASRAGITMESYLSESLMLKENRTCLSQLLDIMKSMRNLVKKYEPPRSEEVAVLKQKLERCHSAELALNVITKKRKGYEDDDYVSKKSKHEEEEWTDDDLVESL
- Sequence (P50613 whole entry): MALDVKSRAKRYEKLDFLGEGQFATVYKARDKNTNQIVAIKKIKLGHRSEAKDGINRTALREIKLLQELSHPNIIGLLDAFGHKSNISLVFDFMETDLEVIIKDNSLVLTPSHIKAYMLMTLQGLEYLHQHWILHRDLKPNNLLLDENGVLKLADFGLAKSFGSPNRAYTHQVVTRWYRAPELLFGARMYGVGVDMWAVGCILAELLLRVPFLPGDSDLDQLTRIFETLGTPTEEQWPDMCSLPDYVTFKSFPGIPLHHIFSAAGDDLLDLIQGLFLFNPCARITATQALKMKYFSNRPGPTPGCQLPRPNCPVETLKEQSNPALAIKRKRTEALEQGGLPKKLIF
- Sequence (P51948 whole entry, further chain): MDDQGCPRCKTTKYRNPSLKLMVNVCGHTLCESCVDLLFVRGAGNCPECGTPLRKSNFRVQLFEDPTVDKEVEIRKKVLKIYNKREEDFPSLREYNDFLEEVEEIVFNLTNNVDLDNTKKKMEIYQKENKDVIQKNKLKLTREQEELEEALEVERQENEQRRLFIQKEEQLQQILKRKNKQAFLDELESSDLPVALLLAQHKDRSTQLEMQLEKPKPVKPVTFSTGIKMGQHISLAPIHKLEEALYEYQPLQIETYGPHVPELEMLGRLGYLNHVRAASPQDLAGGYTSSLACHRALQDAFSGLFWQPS
- Measurement notes: Inhibition of CDK7/cyclin H/MAT1 (unknown origin)
pIC50: −log10 of the molar value.

- Chemical structure: "CC(=O)c1nc2cnc(Nc3ccc(N4CCN(C)CC4)cc3)nc2n(C2CCCC2)c1=O"
  pIC50: "< 5.00"

Now turn to the next compound.
get_value(item= CCN1CCN(c2ccc(Nc3ncc4nc(C(C)=O)c(=O)n(C5CCCC5)c4n3)cc2)CC1 , readout=pIC50) returns < 5.00

###

- System under test: CDK6/cyclin D1 (Homo sapiens)
- Sequence (P24385 whole entry): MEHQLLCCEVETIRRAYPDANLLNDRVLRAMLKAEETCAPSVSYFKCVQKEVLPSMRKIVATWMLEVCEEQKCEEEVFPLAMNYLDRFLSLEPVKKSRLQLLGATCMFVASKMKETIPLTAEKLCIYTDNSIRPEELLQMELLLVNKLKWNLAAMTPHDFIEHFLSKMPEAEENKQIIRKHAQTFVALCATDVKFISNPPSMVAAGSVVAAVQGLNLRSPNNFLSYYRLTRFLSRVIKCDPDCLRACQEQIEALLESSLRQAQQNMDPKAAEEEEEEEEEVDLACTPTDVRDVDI
- Sequence (Q00534 whole entry): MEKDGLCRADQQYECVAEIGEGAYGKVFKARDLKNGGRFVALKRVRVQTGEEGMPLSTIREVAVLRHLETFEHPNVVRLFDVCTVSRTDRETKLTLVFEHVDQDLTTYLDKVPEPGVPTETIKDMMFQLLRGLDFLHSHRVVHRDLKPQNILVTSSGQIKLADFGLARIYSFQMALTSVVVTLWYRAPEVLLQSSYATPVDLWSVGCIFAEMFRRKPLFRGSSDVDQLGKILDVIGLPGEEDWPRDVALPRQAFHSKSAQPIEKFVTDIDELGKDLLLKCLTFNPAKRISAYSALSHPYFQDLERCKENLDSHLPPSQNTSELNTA
- Measurement notes: Inhibition of CDK6/cyclin D1 (unknown origin)
pIC50: −log10 of the molar value.
Measured attribute: pIC50

- Chemical structure: "CCN1CCN(c2ccc(Nc3ncc4nc(C(C)=O)c(=O)n(C5CCCC5)c4n3)c(N)c2)CC1"
  pIC50: 5.15
- Chemical structure: "CCN1CCN(c2ccc(Nc3ncc4nc(C(C)=O)c(=O)n(C5CCCC5)c4n3)cc2)CC1"
  pIC50: 7.52
- Chemical structure: "CCN1CCN(c2ccc(Nc3ncc4nc(-c5ccco5)c(=O)n(C5CCCC5)c4n3)cc2)CC1"
  pIC50: 6.03
- Chemical structure: "CC(=O)c1nc2cnc(Nc3ccc(N4CCOCC4)cc3)nc2n(C2CCCC2)c1=O"
  pIC50: 6.77
- Chemical structure: "CC(=O)c1nc2cnc(Nc3ccc(N4CCC(N5CCN(C)CC5)CC4)cc3)nc2n(C2CCCC2)c1=O"
  pIC50: 7.32

I. CC(=O)c1nc2cnc(Nc3ccc(N4CCCCC4)cc3)nc2n(C2CCCC2)c1=O
II. COc1cc(N2CCN(C)CC2)ccc1Nc1ncc2nc(C(C)=O)c(=O)n(C3CCCC3)c2n1
III. CC(=O)c1nc2cnc(Nc3ccc(N4CCN(C)CC4)cc3)nc2n(C2CCCC2)c1=O
IV. CC(=O)c1nc2cnc(Nc3ccc(N4CCN(C5CCCC5)CC4)cc3)nc2n(C2CCCC2)c1=O
V. CCN1CCN(c2ccc(Nc3ncc4nc(C(C)=O)c(=O)n(C5CCCC5)c4n3)c(CO)c2)CC1
Data request: Rank ascending by pIC50. Return the labels ranked in the requested order, please.
Data returned: II, V, I, IV, III

###

- System under test: CDK9/cyclin T1 (Homo sapiens)
- Sequence (O60563 whole entry): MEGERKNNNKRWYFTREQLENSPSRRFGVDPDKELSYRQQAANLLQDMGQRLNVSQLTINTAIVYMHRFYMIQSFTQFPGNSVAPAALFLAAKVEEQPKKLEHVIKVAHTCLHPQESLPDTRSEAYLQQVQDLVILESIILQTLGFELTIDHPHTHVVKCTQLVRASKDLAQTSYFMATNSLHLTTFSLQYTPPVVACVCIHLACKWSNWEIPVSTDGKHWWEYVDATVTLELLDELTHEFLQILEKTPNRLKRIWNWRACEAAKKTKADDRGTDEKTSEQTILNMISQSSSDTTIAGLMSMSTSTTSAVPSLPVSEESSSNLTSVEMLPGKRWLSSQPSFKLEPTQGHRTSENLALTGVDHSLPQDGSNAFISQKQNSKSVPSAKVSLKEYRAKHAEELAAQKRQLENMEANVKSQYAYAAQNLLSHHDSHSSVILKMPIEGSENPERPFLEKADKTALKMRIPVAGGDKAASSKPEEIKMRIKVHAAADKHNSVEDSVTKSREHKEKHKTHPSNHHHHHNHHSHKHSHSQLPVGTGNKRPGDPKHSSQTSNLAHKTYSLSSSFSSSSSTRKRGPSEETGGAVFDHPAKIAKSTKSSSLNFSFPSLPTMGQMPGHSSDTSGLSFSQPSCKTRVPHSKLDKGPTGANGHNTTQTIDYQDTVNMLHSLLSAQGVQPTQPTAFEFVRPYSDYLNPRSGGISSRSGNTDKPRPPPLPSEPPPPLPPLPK
- Sequence (P50750 whole entry): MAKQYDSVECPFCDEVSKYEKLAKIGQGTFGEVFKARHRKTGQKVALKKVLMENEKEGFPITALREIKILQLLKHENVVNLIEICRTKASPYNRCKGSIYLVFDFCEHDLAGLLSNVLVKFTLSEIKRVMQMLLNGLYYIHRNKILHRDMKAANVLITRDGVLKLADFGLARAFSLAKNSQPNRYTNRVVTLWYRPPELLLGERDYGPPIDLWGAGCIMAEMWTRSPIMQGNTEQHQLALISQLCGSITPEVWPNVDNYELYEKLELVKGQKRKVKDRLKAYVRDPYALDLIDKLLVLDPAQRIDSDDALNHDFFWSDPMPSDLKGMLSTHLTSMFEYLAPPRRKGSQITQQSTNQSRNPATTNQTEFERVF
- Measurement notes: Inhibition of CDK9/cyclin T1 (unknown origin)
Measured attribute: pIC50
The read-out pIC50 is expressed as -log10 of concentration in moles per litre.

get_value(item= CCN1CCN(c2ccc(Nc3ncc4nc(C(C)=O)c(=O)n(C5CCCC5)c4n3)cc2)CC1 , readout=pIC50) returns 5.09

###

- System under test: Cyclin-dependent kinase 4/cyclin D1 (Homo sapiens)
- Sequence (P11802 whole entry, one chain of several): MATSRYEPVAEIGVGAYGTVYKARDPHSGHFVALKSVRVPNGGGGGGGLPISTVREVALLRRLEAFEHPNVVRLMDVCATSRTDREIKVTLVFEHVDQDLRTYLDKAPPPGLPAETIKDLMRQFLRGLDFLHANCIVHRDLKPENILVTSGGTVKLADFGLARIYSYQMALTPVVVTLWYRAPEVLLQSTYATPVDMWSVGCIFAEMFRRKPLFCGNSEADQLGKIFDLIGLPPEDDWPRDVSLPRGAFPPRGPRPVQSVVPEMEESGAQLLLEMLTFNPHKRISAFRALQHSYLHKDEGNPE
- Measurement notes: Inhibition of CDK4/cyclin D1 (unknown origin)
pIC50: −log10 of the molar value.
Measured attribute: pIC50

Reference set, count: 5
- Chemical structure: "CC(=O)c1nc2cnc(Nc3ccc(N4CCN(C)CC4)cc3)nc2n(C2CCCC2)c1=O"
  pIC50: 7.44
- Chemical structure: "CC(=O)c1nc2cnc(Nc3ccc(N4CCCC4)cc3)nc2n(C2CCCC2)c1=O"
  pIC50: 6.43
- Chemical structure: "CC(=O)c1nc2cnc(Nc3ccc(N4CCN(C5CCCC5)CC4)cc3)nc2n(C2CCCC2)c1=O"
  pIC50: 7.44
- Chemical structure: "CC(=O)c1nc2cnc(Nc3ccc(N4CCCCC4)cc3)nc2n(C2CCCC2)c1=O"
  pIC50: 7.19
- Chemical structure: "CC(=O)c1nc2cnc(Nc3ccc(N4CCOCC4)cc3)nc2n(C2CCCC2)c1=O"
  pIC50: 7.13

A. CCN1CCN(c2ccc(Nc3ncc4nc(-c5ccco5)c(=O)n(C5CCCC5)c4n3)cc2)CC1
B. CCN1CCN(c2ccc(Nc3ncc4nc(C(C)=O)c(=O)n(C5CCCC5)c4n3)c(CO)c2)CC1
C. CCN1CCN(c2ccc(Nc3ncc4nc(C(C)=O)c(=O)n(C5CCCC5)c4n3)cc2)CC1
D. CC(=O)c1nc2cnc(Nc3ccc(N4CCC(N5CCN(C)CC5)CC4)cc3)nc2n(C2CCCC2)c1=O
Data request: Order the 4 molecules from highest to lowest pIC50. Return the labels ranked in the requested order, please.
Data returned: C, D, B, A

A. COc1cc(N2CCN(C)CC2)ccc1Nc1ncc2nc(C(C)=O)c(=O)n(C3CCCC3)c2n1
B. CCN1CCN(c2ccc(Nc3ncc4nc(C(C)=O)c(=O)n(C5CCCC5)c4n3)c(N)c2)CC1
Data request: Looking at A and B , which one comes out lower in pIC50 terms? Which one? Tell me its label.
Data returned: B
(B: 5.10, A: 5.35)

Entry source: ChEMBL document CHEMBL5214938
